// data source = PubChem BioAssay (NCI)

Tested on: OVCAR-4 ovarian
Test: NCI tumour cell line growth inhibition, 48 h
Property name: TGI

The molecule listed as Nc1nc(SCc2ccccc2Cl)c2ncn(C3OC(CO)C(O)C3O)c2n1 (centres undefined) shows TGI equal to > 100 µM

The molecule listed as "CCc1ccc2c(c1)C(=O)c1c-2n(CCCN)c(=O)c2cc(OC)c(OC)cc12" shows TGI equal to 3.2 µM

The molecule listed as "CO[C@@]12C[C@H](CNC(=O)c3ccc[nH]3)O[C@@H]1NC(=O)N2" shows TGI equal to > 100 µM

The molecule listed as "CC(C)=CCC[C@@H](C)C1=C(O)C(N[C@H](C)c2ccccc2)=C(C)C(=O)C1=O" shows TGI equal to > 60.1 µM
